# TESTED_ON: Rac GTPase-activating protein 1 (Homo sapiens) (UniProt Q9H0H5)
# Sequence (Q9H0H5 whole entry, looked up): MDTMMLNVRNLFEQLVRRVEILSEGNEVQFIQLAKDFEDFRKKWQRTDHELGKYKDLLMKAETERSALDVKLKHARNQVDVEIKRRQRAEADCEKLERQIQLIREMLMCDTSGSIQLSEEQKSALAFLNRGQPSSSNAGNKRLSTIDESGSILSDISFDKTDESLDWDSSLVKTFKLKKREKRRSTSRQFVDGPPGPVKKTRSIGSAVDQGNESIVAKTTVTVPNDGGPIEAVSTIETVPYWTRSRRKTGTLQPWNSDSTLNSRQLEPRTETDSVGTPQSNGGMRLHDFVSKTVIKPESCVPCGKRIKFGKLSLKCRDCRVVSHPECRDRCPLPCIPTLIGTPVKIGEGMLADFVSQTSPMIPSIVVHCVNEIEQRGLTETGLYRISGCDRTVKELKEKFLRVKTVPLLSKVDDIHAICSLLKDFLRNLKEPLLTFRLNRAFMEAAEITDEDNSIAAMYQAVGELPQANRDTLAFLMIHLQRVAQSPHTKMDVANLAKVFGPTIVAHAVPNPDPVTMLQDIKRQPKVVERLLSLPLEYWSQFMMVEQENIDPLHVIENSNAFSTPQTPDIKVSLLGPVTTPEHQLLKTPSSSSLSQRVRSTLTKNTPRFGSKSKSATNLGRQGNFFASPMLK
# TEST_METHOD_NOTES: blockers of MgcRacGAP-driven Rac1 GTP hydrolysis – biochemical, ADP Hunter fluorescence, primary and confirmatory, confirmation (AID 624330);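 further: fluorescence reports GDP produced by GAP-driven GTP hydrolysis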
# ASSAY_CONDITIONS: MgcRacGAP-stimulated Rac1 GTP hydrolysis, at 30 µM, hits give high values, GST-tagged Rac1 F28L mutant substrate
Screen size: about 340,000 compounds; about 2,100 (0.62%) were called active. Only a sample is shown. Measured potencies and affinities stand elsewhere.
# inhibition per entry
ASSAY_READOUT: inhibition (%)

{"COMPOUND": "Cc1cc(NC(=O)COC(=O)CNC(=O)c2cccs2)c([N+](=O)[O-])cc1C", "UNIT_ABBREVIATION": "%", "OBSERVED_MEASUREMENT": 10.5}
{"COMPOUND": "O=C(CSc1nc2ncc(Cl)cc2[nH]1)N1CCC(Cc2ccccc2)CC1", "UNIT_ABBREVIATION": "%", "OBSERVED_MEASUREMENT": 5.18}
{"COMPOUND": "O=C1CCCc2oc3ccc(NS(=O)(=O)c4cccc5cccnc45)cc3c21", "UNIT_ABBREVIATION": "%", "OBSERVED_MEASUREMENT": -1.33}
{"COMPOUND": "C=CCNC(=O)C(=O)N/N=C/c1cccc(Br)c1", "UNIT_ABBREVIATION": "%", "OBSERVED_MEASUREMENT": 5.98}
{"COMPOUND": "O=C(CNC(=O)c1ccc(Br)o1)NNC(=O)c1ccccc1O", "UNIT_ABBREVIATION": "%", "OBSERVED_MEASUREMENT": 6.63}
{"COMPOUND": "COc1ccc2cc(CN(CC3COCCO3)S(=O)(=O)c3ccccc3)c(=O)[nH]c2c1 (stereo unspecified)", "UNIT_ABBREVIATION": "%", "OBSERVED_MEASUREMENT": -14.3}

Data provenance: PubChem BioAssay AID624330
